# credit: PubChem BioAssay AID1963961

system: K98450-129-R-PDC multicell spheroids, viability; assay: Anticancer human tumor K98450-129-R-PDC patient-derived colon adenocarcinoma cell line growth inhibition [PI3K]; details: second compound 1 µM; first compound 0.00316 µM; hits give low values;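 also: spheroids exposed to agents for seven days before read-out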
OBSERVATION_TYPE: viability, T/C (%)
One number for each entry, in %.

Some entries whose results are on file:
[[record]]
molecule = "CCN1CCN(Cc2ccc(Nc3ncc(F)c(-c4cc(F)c5nc(C)n(C(C)C)c5c4)n3)nc2)CC1 + COc1c(OCCCN2CCOCC2)ccc2c3n(c(=NC(=O)c4cnc(N)nc4)nc12)CCN3"
tested_on = "K98450-129-R-PDC multicell spheroids, viability"
observation_type = "viability, T/C"
quantitative_readout = 56

[[record]]
molecule = "CC(=O)c1c(C)c2cnc(Nc3ccc(N4CCNCC4)cn3)nc2n(C2CCCC2)c1=O + CC(Nc1ccc2c(c1)OCCn1cc(N3C(=O)OCC3C(F)F)nc1-2)C(N)=O"
tested_on = "K98450-129-R-PDC multicell spheroids, viability"
observation_type = "viability, T/C"
quantitative_readout = 94.1


So what does the record say about viability, T/C for Cn1ncnc1[C@H]1c2n[nH]c(=O)c3cc(F)cc(c23)N[C@@H]1c1ccc(F)cc1 + CC(Nc1ncnc2nc[nH]c12)c1cc2cccc(Cl)c2c(=O)n1-c1ccccc1 ? 93.8
